# target: Pim-1 (Homo sapiens (Human), UniProt P11309)
# Sequence (P11309 whole entry): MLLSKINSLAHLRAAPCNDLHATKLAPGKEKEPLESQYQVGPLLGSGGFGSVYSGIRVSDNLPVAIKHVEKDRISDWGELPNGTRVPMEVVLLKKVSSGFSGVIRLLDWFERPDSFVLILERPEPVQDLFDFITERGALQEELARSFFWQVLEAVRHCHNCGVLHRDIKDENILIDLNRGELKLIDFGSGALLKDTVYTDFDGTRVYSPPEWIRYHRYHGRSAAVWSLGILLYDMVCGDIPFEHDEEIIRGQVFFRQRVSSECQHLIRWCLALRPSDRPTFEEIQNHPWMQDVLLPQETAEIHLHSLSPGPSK
# protocolDescription: Pim-Mn enzyme assay (HTRF, 384-well), Pim-1
# Assay type: biochemical
# measurementSetup: Pim-1 enzyme 5 pM, ATP 1.5 μM, BAD (S112) 0.5 μM, HTRF, 22-point curve; read-out: Pim-1-Mn IC50 IP
Exercise: for every item that follows, state its recorded IC50.
Note: a bare number is incomplete; add the unit.

INPUT: Any idea what its IC50 is? The compound is Cc1nc2cccc(-c3cc4c([nH]3)CCNC4=O)c2nc1NC(C)C(F)(F)F (stereo in doubt)
OUTPUT: 4.97 nM

INPUT: Quick one: IC50 for Cc1nc2cccc(-c3cc4c([nH]3)CCNC4=O)c2nc1NC1CCN(C(=O)OC(C)(C)C)CC1 ?
OUTPUT: 13.2 nM

INPUT: # query: IC50 of entry Cc1nc2cccc(-c3cc4c([nH]3)CCNC4=O)c2nc1N[C@H]1CC[C@@H](N)C1 (single isomer, unassigned) [Example 143]
OUTPUT: 0.3 nM

INPUT: Which measured IC50 value corresponds to CC(C)(C)Nc1ncc2cccc(-c3cc4c([nH]3)CCNC4=O)c2n1 ?
OUTPUT: 2.54 nM

INPUT: Item under review: C[C@H]1NC(=O)c2cc(-c3c(F)ccc4c(=O)n(C5CC5)c(NC5(C)CCC5)nc34)[nH]c21 . Reported IC50?
OUTPUT: 0.07 nM

INPUT: Entry under review: Cc1nc2cccc(-c3cc4c([nH]3)[C@@H](C)NC4=O)c2nc1NCC(F)(F)F . Reported IC50?
OUTPUT: 1.23 nM

INPUT: Recorded IC50 of C[C@H]1NC(=O)c2cc(-c3cccc4cnc(NC5(C)CC5)nc34)[nH]c21 , please.
OUTPUT: 1 nM

INPUT: Entry Cc1nc2cccc(-c3cc4c([nH]3)CCNC4=O)c2nc1N[C@H]1CCCN(C(=O)OC(C)(C)C)C1 : reported IC50 = ?
OUTPUT: 191 nM

INPUT: Quick check: IC50 of Cc1nc2cccc(-c3cc4c([nH]3)CCNC4=O)c2nc1N[C@@H](C)C1CC1 ?
OUTPUT: 2.2 nM

INPUT: So what's the measured IC50 for this one? Cc1nc2cccc(-c3cc4c([nH]3)CCNC4=O)c2nc1N[C@H](C)C1CC1
OUTPUT: 1.3 nM

INPUT: Give the measured IC50 of Cc1nc2cccc(-c3cc4c([nH]3)CCNC4=O)c2nc1SC(C)(C)C .
OUTPUT: 3.1 nM

INPUT: Item under review: COCC(C)(C)Nc1nc2c(-c3cc4c([nH]3)CCNC4=O)cccc2nc1C [Example 66] . Reported IC50?
OUTPUT: 2.7 nM

INPUT: May I ask what IC50 has been recorded for Cc1nc2cccc(-c3cc4c(=O)[nH]cnc4[nH]3)c2nc1F ?
OUTPUT: 1120 nM

INPUT: Fill in: IC50 of Cc1nc2cccc(-c3cc4c([nH]3)CCN(CO)C4=O)c2nc1NC(C)(C)C is ___
OUTPUT: 7 nM

INPUT: GET /values?readout=IC50&item= Cc1nc2ccc(F)c(-c3cc4c([nH]3)C3(CC3)NC4=O)c2nc1NC1CC1
OUTPUT: 0.303 nM

INPUT: Requested read-out: IC50. Entry: Cc1nc2cccc(-c3cc4c([nH]3)CCNC4=O)c2nc1NC1CCCNC1=O (racemic)
OUTPUT: 53.6 nM
